Listed here: items and their measured EC50.
- Tested on: HCV genotype 3a replicon
- assay procedure: HCV genotype 3a replicon assay
- Type: cell-based, Hepatitis C virus
- condition context: Hepatitis C virus, read-out: EC50 (nM, in the absence of HP) 3a, absence of human plasma; Table 5

compound | EC50
COC(=O)N[C@H](C(=O)N1CCC[C@H]1c1nc2cc([C@H]3CC[C@H](c4ccc5[nH]c([C@@H]6CCCN6C(=O)[C@@H](NC(=O)OC)C(C)C)nc5c4)N3c3ccc(N4CCC(c5ccccc5)CC4)cc3)ccc2[nH]1)C(C)C [Example 4.25] | 0.5 nM
COC(=O)N[C@H](C(=O)N1CCC[C@H]1c1nc2cc([C@H]3CC[C@H](c4ccc5[nH]c([C@@H]6CCCN6C(=O)[C@@H](NC(=O)OC)C(C)C)nc5c4)N3c3ccc(C4CC4)cc3)ccc2[nH]1)C(C)C | ≤ 0.05 nM
COC(=O)N[C@H](C(=O)N1CCC[C@H]1c1nc2cc([C@H]3CC[C@H](c4ccc5[nH]c([C@@H]6CCCN6C(=O)[C@@H](NC(=O)OC)C(C)C)nc5c4)N3c3cc(F)c(N4CCC(c5ccccc5)CC4)c(F)c3)ccc2[nH]1)C(C)C [Example 5.1] | ≤ 0.05 nM
COC(=O)N[C@H](C(=O)N1CCC[C@H]1C(=O)Nc1ccc([C@H]2CC[C@H](c3ccc(NC(=O)[C@@H]4CCCN4C(=O)[C@@H](NC(=O)OC)C(C)C)cc3)N2c2ccc(C(C)(C)C)cc2)cc1)C(C)C | ≤ 0.05 nM

Hello, the source for this data is patent US9586978B2, in case you need it.
